Below, each entry is listed alongside its reported composite z-score.
Molecular target: Torsin-1A-interacting protein 2 (Homo sapiens) (UniProt Q8NFQ8)
Sequence (Q8NFQ8 whole entry, looked up): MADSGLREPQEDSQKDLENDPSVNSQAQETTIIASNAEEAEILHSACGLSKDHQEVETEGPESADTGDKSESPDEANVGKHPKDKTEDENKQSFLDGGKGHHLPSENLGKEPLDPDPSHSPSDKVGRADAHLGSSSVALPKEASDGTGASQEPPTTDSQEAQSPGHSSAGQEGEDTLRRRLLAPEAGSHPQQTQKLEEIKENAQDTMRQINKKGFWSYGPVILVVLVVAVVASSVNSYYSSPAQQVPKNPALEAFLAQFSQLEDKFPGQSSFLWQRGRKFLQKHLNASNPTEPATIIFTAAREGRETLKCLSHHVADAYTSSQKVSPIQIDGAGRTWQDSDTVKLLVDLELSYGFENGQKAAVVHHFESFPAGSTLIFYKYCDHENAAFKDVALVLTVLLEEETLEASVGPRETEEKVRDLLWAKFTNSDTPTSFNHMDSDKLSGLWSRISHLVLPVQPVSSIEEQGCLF
Test: small molecules binding lysate-expressed LULL1 – cell lysate, human LULL1 lysate, 635/667 nm fluorescence, primary screen (AID 1092);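 note: probe is lysate of COS7 cells overexpressing human LULL1; score merges per-feature 667 nm fluorescence with signal-to-noise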
Conditions: small-molecule microarray, hLULL1 lysate binding, 635 nm fluorescence; higher = more signal
Output: the number by itself.

See these solved cases before continuing.
COMPOUND	ENDPOINT	EXPERIMENTAL_VALUE
C=C(C)[C@@H]1CC=C(C(O)C2C=CC3C(=O)N(Cc4ccccc4)C(=O)C3N2n2cnnc2)CC1 (some centres not stated)	composite z-score	1.3
CN(C)CCCC[C@@H]1NC(=O)[C@H]2C[C@@H](C(=O)NCCCCCNC(=O)CS)[C@@H](c3ccc(O)cc3)N2C1=O	composite z-score	0.134
C=CCC(OC(C)=O)[C@@H]1[C@@H](N(Cc2ccc(-c3ccccc3)cc2)C(=O)c2ccc(C)cc2)c2cc(OCCCO)ccc2N1C(=O)c1ccc2ccccc2n1 (some centres not stated)	composite z-score	0.209
CCCCC(=O)N(Cc1ccccc1F)[C@@H]1CC(C(=O)NCCO)=C[C@H](Oc2c(I)cc(CO)cc2OC)[C@H]1O	composite z-score	1.83
CCN(CC)c1ccc(N2CC=CC34O[C@@H]5/C=C\CCC(C)OC(=O)C5[C@H]3C(=O)N(CCCCCCO)[C@@H]4C2=O)cc1 (some centres not stated)	composite z-score	0.989

Input: Give composite z-score for C=C(COC)C(=O)CC[C@@H](OC(=O)c1ccccc1-c1ccccc1C(=O)O)c1ccc(CO)o1
Output: 2.4

Input: Give composite z-score for C=CCN1Cc2ccccc2C[C@@]2(COC(c3ccc(OCCCO)cc3)=N2)C1=O
Output: 2.3
